Target: von Willebrand factor (VWF) (Homo sapiens, UniProt P04275 P04275:764-2813)
Assay: filter; Bmax 51%; 2 mM CaCl2, 37 C
Conditions: tags: factor VIII free, Haematologic Technologies Inc; label: 5'-32P
attribute_measured: Kd

> print(dat)
                                     binder  value.reported
1  T10 (ssRNA, 2'-F C and U; 2'-OH A and G; 3' idT) RNA: GGGAGGUGGACGAACUGCCCUCAGCUACUUUCAUGUUGCUGACGCACAGACGACUCGCUG       0.0184 µM
